Target: CB2 cannabinoid receptor (Mus musculus)
Sequence (P47936 whole entry): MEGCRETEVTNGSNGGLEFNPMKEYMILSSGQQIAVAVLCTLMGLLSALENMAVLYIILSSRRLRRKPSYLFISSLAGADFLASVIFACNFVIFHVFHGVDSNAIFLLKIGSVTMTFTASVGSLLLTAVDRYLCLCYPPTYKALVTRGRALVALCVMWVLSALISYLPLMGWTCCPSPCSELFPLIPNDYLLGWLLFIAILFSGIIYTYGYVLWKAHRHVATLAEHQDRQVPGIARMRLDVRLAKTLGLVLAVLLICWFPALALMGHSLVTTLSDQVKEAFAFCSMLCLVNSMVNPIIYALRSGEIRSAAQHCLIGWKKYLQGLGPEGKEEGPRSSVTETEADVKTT
Test: biochemical
Type: binding
Details: Table 6; mouse spleen membranes, [3H] CP-55,940; read-out: CB2 Ki
Each record is given Yes if its reported Ki is strictly below 1 µM. Records at or above 1 µM are given No.

compound: Cc1c(C(=O)NN2CCCCC2)nc(-c2ccc(Cl)cc2Cl)n1-c1ccc(-c2nnnn2C)cc1 [Compound 1-17]
assigned_label: No

State whether 1 µM exceeds Ki recorded for Cc1c(NC(=O)N(C)C2CCCCC2)nc(-c2ccc(Cl)cc2Cl)n1-c1ccc(Br)cc1 [Compound 1-37] .
No

Please let me know if O=C(NN1CCCCC1)c1nc(-c2ccc(Cl)cc2Cl)n(-c2ccc(-c3cccnc3)cc2)c1CO [Compound 1-15] shows Ki below 1 µM.
No

Record Cn1nnc(-c2ccc(-n3c(-c4ccc(Cl)cc4Cl)nc(C(=O)NN4CCCCC4)c3CO)cc2)n1 [Compound 1-21] : is its Ki strictly below 1 µM?
Yes

Strictly below 1 µM in Ki? Cc1cc(Br)ccc1-n1c(-c2ccc(Cl)cc2Cl)nc(C(=O)NN2CCCCC2)c1CO [Compound 1-3]
Yes

I'd appreciate it if you could check whether O=C(Nc1nc(-c2ccc(Cl)cc2Cl)n(-c2ccc(I)cc2)c1CO)NC1CCCCC1 [Compound 1-39] has Ki smaller than 1 µM.
No

Given the entry N#Cc1ccc(-n2c(-c3ccc(Cl)cc3Cl)nc(C(=O)NN3CCCCC3)c2CO)cc1 [Compound 1-9] , would its reported Ki be below 1 µM?
No

Does the reported Ki of Cc1c(C(=O)NN2CCCCC2)nc(-c2ccc(Cl)cc2Cl)n1-c1ccc(-c2nnn[nH]2)cc1 [Compound 1-16] stay below 1 µM?
No

Does CN(C(=O)c1nc(-c2ccc(Cl)cc2Cl)n(-c2ccc(-c3nnn[nH]3)cc2)c1CO)C1CCCCC1 [Compound 1-25] have Ki strictly under 1 µM?
Yes

Criterion: Ki strictly below 1 µM. Is it met by CN(C(=O)c1nc(-c2ccc(Cl)cc2Cl)n(-c2ccc(I)cc2)c1CO)C1CCCCC1 [Compound 1-11] ?
No

Input Cc1c(C(=O)NN2CCCCC2)nc(-c2ccc(Cl)cc2Cl)n1-c1ccc(-c2nccs2)cc1 [Compound 1-28] ; condition: Ki strictly below 1 µM. Does it hold?
Yes

Is Ki strictly under 1 µM for the entry Cc1cc(Br)ccc1-n1c(-c2ccc(Cl)cc2Cl)nc(C(=O)NN2CCCCC2)c1C [Compound 1-1] ?
Yes

In the record for Cc1c(C(=O)N(C)C2CCCCC2)nc(-c2ccc(Cl)cc2Cl)n1-c1ccc(-c2nnn(C)n2)cc1 [Compound 1-24] , is Ki less than 1 µM?
Yes

Dear colleague, could you confirm whether Ki of Cc1c(C(=O)NN2CCCCC2)nc(-c2ccc(Cl)cc2Cl)n1-c1ccc(C#N)cc1 [Compound 1-8] falls below 1 µM? Thanks.
No

====

Target: UniProtKB P47936
Assay: biochemical
Assay type: binding
Details: Table 10; mouse spleen membranes; read-out: Receptor Affinities Ki (nM) CB2
Simple rule here: Ki less than 30 nM is satisfied, otherwise not satisfied.

See these solved cases before continuing.
compound_structure_string: Cc1c(C(=O)NN2CCCCC2)nn(-c2ccc(Cl)cc2Cl)c1-c1ccc(C#CCCCCN)cc1
assigned_label: not satisfied
--
compound_structure_string: Cc1c(C(=O)NN2CCCCC2)nn(-c2ccc(Cl)cc2Cl)c1-c1ccc(C#CCN(C)C)cc1.Cl
assigned_label: not satisfied

Ki strictly < 30 nM for this compound? "Cc1c(C(=O)NN2CCCCC2)nn(-c2ccc(Cl)cc2Cl)c1-c1ccc(C#CCCN)cc1"
not satisfied

I wonder whether "Cc1c(C(=O)NN2CCCCC2)nn(-c2ccc(Cl)cc2Cl)c1-c1ccc(C#CC2(O)CCCC2)cc1" has Ki below 30 nM. Can you tell?
satisfied

Threshold test, Ki < 30 nM: "Cc1c(C(=O)NN2CCCCC2)nn(-c2ccc(Cl)cc2Cl)c1-c1ccc(C#Cc2ccccn2)cc1"
not satisfied

====

pKi: recorded values
Molecular target: CB1 cannabinoid receptor (Rattus norvegicus)
Construct: membranes were prepared from rat forebrain membranes; from tissue; host or cells: rat forebrain membranes
Sequence (P20272 whole entry): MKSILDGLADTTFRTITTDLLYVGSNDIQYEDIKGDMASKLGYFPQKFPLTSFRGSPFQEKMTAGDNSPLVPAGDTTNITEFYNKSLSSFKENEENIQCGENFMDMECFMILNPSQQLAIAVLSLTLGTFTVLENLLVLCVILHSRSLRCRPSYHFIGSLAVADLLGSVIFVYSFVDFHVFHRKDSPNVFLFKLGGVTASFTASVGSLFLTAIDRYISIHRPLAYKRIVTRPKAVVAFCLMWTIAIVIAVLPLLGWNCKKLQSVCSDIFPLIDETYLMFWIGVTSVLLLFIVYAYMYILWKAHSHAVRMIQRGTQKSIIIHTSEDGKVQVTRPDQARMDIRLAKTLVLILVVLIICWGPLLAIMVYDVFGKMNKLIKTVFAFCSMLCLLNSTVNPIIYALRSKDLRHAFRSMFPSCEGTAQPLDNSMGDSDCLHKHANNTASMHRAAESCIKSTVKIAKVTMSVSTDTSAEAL
Assay: biochemical
Type: binding
Settings: CB1 Ki, Table 6; rat forebrain membranes, 0.8 nM [3H] CP-55,940
# reply with the number alone; pKi is -log10 of concentration in mol/L

Some solved cases for reference:
molecule: O=C(Nc1nc(-c2ccc(Cl)cc2Cl)n(-c2ccc(I)cc2)c1CO)NC1CCCCC1 [Compound 1-39]
assay_metric: pKi
recorded_measurement: 8.17
//
molecule: Cc1c(NC(=O)NC2CCCCC2)nc(-c2ccc(Cl)cc2Cl)n1-c1ccc(Br)cc1 [Compound 1-35]
assay_metric: pKi
recorded_measurement: 8.16

Consider the additional molecule presented here.
Fill in the blank: the reported pKi of [N-]=[N+]=NCc1c(C(=O)NN2CCCCC2)nc(-c2ccc(Cl)cc2Cl)n1-c1ccc(Br)cc1 [Compound 1-41] is ____.
8.15

Recorded values, source patent US8410097B2.
